study target: UniProtKB P43490
method notes: NMN fluorescence biochemical assay (human recombinant NAMPT enzyme assay)
readout name: AC1.4 Human (µM)

The examples below pair each entry with its known result.
> print(dat)
                                   compound  value.observed
1  CCc1cc(C(=O)N(C)Cc2ccc(NC(=O)OCc3ccc(Cl)cc3)cc2)n(C)n1            3.95
2  O=C(Nc1ccc(Cc2ccncc2)cc1)OCc1ccc(C(F)F)cc1            1.75
3  CN(Cc1ccc(NC(=O)OCc2ccc(Cl)cc2)cc1)C(=O)c1cnco1            1.03
4  Cc1noc(C(=O)N(C)Cc2ccc(NC(=O)OCc3ccc(Cl)cc3)cc2)c1C            1.64
5  CC(=O)N1CC2CCC(C1)C2Cc1ccc(NC(=O)OCc2cnco2)cc1 (stereo not shown)            0.04
6  CN1CCN(C(=O)Cc2ccc(NC(=O)OCc3ccc(Cl)cc3)cc2)CC1=O            8.89

1 = O=C(Nc1ccc(CC2CCN(S(=O)(=O)C3CCC3)CC2)cc1)OCc1cnco1
2 = Cc1noc(C(=O)NCc2ccc(NC(=O)OCc3ccc(Cl)cc3)cc2)c1C
3 = CN(Cc1ccc(NC(=O)OCc2ccc(Cl)cc2)cc1)C(=O)c1cncc(F)c1
Asked: Falling order of AC1.4 Human, please. Answer by listing the labels in the requested order.
Given back: 3, 2, 1

a = COC(=O)N1CCC(CCc2ccc(NC(=O)OCc3cnco3)cc2)CC1
b = CC(C)S(=O)(=O)N1CCC(Cc2ccc(NC(=O)OCc3cnco3)cc2)CC1
Asked: Between item a and item b , which reported AC1.4 Human is smaller? Please indicate the selected item by its label.
Given back: b
(b: 0.14 µM, a: 0.96 µM)

A = Cc1cc(C(=O)NCc2ccc(NC(=O)OCc3ccc(Cl)cc3)cc2)n(C)n1
B = O=C(Nc1ccc(C2CCN(C3COC3)CC2)cc1)OCc1cnco1
C = CC(=O)N1CCC(Cc2ccc(NC(=O)OCc3cnco3)cc2)CC1
D = COc1ccc(C(=O)N[C@@H](C)c2ccc(NC(=O)OCc3ccc(Cl)cc3)cc2)cn1
Asked: Hey, can you sort those compounds up there by AC1.4 Human, smallest first? List labels; respect the requested ordering.
Given back: C, D, A, B

----------
study target: human NAMPT (Homo sapiens (Human))
method notes: NMN fluorescence biochemical assay (human recombinant NAMPT enzyme assay)
pEC50: −log10 of the molar value.
readout name: pEC50

A = O=C(Nc1ccc(NS(=O)(=O)Cc2ccccc2)cc1)OCc1ccc(Cl)cc1
B = CN(C)C(=O)N1CCC(Cc2ccc(NC(=O)OCc3cnco3)cc2F)CC1
C = O=C(Nc1ccc(CN2CCN(c3cnccn3)CC2)cc1)OCc1ccc(Cl)cc1
D = Cc1n[nH]cc1C(=O)N(C)Cc1ccc(NC(=O)OCc2ccc(Cl)cc2)cc1
Asked: Order the above compounds by increasing pEC50. Reply with the labels, ordered as the question asks.
Given back: D, B, C, A

----------
study target: human NAMPT (Homo sapiens (Human), UniProt P43490)
Sequence (P43490 whole entry): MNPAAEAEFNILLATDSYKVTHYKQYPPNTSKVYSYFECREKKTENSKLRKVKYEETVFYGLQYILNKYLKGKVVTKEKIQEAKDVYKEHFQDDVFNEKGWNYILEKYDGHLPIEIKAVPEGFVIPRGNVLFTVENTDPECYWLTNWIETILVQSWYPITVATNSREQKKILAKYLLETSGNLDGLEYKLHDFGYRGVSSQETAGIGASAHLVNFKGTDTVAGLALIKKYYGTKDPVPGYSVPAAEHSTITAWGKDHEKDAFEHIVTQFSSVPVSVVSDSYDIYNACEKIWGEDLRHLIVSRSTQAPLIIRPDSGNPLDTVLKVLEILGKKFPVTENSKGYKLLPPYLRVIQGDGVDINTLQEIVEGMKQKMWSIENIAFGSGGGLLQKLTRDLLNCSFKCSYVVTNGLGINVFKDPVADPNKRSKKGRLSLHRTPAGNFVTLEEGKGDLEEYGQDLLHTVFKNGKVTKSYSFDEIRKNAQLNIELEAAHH
method notes: NMN fluorescence biochemical assay (human recombinant NAMPT enzyme assay)
readout name: AC1.4 Human (µM)

Known results for molecules:
> print(dat)
                                   molecule  readout.name  value.observed
1  CC(C)(C)OC(=O)N1CCC(Cc2ccc(NC(=O)OCc3cnco3)cc2)CC1 [Compound 79]   AC1.4 Human            0.66
2  CNS(=O)(=O)N1CCC(Cc2ccc(NC(=O)OCc3cnco3)cc2)CC1 [Compound 10]   AC1.4 Human            0.16
3  C[C@H](NC(=O)c1ccncc1F)c1ccc(NC(=O)OCc2ccc(Cl)cc2)cc1 [Compound 44]   AC1.4 Human            0.45

I = C[C@@H](c1ccc(NC(=O)OCc2ccc(Cl)cc2)cc1)N(C)C(=O)N1CCCC1 [Compound 143]
II = C[C@H](NC(=O)Cc1ncco1)c1ccc(NC(=O)OCc2ccc(Cl)cc2)cc1 [Compound 224]
III = Cc1ccc(Cc2ccc(NC(=O)OCc3cnco3)cc2)cn1 [Compound 51]
IV = CS(=O)(=O)N1CCC2(CC(c3ccc(NC(=O)OCc4cnco4)cc3F)C2)C1 (single isomer, unassigned) [Compound 359]
Asked: Sort entries by AC1.4 Human from minimum to maximum value. // format: requested-order list of labels
Given back: IV, III, I, II

1 = O=C(Nc1ccc(CN2CCN(C3COC3)CC2)cc1)OCc1ccc(Cl)cc1 [Compound 223]
2 = CC(C)n1nccc1C(=O)NCc1ccc(NC(=O)OCc2ccc(Cl)cc2)cc1 [Compound 301]
Asked: Lab note: record which item had the higher AC1.4 Human, 1 or 2 . Your answer should be the label of the entry you select.
Given back: 2
(2: 4.81 µM, 1: 2.05 µM)

a = Cc1ncc(C(=O)N[C@@H](C)c2ccc(NC(=O)OCc3ccc(Cl)cc3)cc2)o1 [Compound 218]
b = CCc1ncoc1C(=O)NCc1ccc(NC(=O)OCc2ccc(Cl)cc2)cc1 [Compound 347]
c = O=C(Nc1ccc(CC(=O)N2CC[C@H](O)C2)cc1)OCc1ccc(Cl)cc1 [Compound 319]
d = CN(C)S(=O)(=O)N1CCC(c2ccc(NC(=O)OCc3cnco3)cc2F)CC1 [Compound 416]
e = NC(=O)N1CCC(Cc2ccc(NC(=O)OCc3ccc(Cl)cc3)cc2)CC1 [Compound 62]
Asked: Sort these molecules on AC1.4 Human so the largest reading comes first. The labels, placed in the requested order, form the answer.
Given back: b, c, a, e, d

A = O=C(Nc1ccc(Cc2ccncc2)cc1)OCc1ccncc1 [Compound 169]
B = Cc1coc(C(=O)N[C@@H](C)c2ccc(NC(=O)OCc3ccc(Cl)cc3)cc2)n1 [Compound 243]
Asked: Lab note: record which item had the higher AC1.4 Human, A or B . Field: selected label. Fill in the label of the entry you choose.
Given back: B

P = Cn1nccc1C(=O)NCc1ccc(NC(=O)OCc2ccc(Cl)cc2)cc1 [Compound 205]
Q = C[C@H]1CCCN(C(=O)Cc2ccc(NC(=O)OCc3ccc(Cl)cc3)cc2)C1 [Compound 261]
R = CN(Cc1ccc(NC(=O)OCc2ccc(Cl)cc2)cc1)C(=O)c1ccnn1C [Compound 50]
S = O=C(Nc1ccc(CN2CCC[C@@H]2c2cccnc2)cc1)OCc1ccncc1 [Compound 3]
Asked: Order these by AC1.4 Human, descending, and give the full ranking. Provide the ranking by listing each label in its place in the requested order.
Given back: Q, P, R, S

A = COc1ccc(COC(=O)Nc2ccc(CN3CCOCC3=O)cc2)cc1 [Compound 174]
B = Cc1ccc(C(=O)NCc2ccc(NC(=O)OCc3ccc(F)cc3)cc2)cn1 [Compound 227]
C = O=C(Cc1cnco1)NCc1ccc(NC(=O)OCc2ccc(Cl)cc2)cc1 [Compound 311]
D = COC(=O)N1CCC(Cc2ccc(NC(=O)OCc3ccncc3)cc2)CC1 [Compound 23]
E = CCC(=O)N1CC2(CC(Cc3ccc(NC(=O)OCc4cnco4)cc3F)C2)C1 [Compound 402]
Asked: List these items ordered by AC1.4 Human, big to small. A ranking is expressed here by listing the labels in the requested order.
Given back: C, B, A, D, E

I = O=C(Nc1ccc(CC(=O)N2CCOCC2)cc1)OCc1ccc(Cl)cc1 [Compound 220]
II = CS(=O)(=O)N1CCC[C@@H](c2ccc(NC(=O)OCc3cnco3)cc2)C1 [Compound 382]
III = O=C(Nc1ccc(CC2CCN(C(=O)N3CCCC3)CC2)cc1)OCc1cnco1 [Compound 462]
Asked: Please list these in order of increasing AC1.4 Human. Thank you! # list labels per requested ordering
Given back: III, II, I

I = CC(=O)N1CCC(Cc2ccc(NC(=O)OCc3ccc(Cl)cc3)cc2)CC1 [Compound 40]
II = C[C@H](NC(=O)[C@H]1C[C@@H]2[C@H](C1)C2(F)F)c1ccc(NC(=O)OCc2cnco2)cc1 [Compound 230]
III = O=C(Nc1ccc(C2CCN(C(=O)C3CC3)CC2)cc1)OCc1cnco1 [Compound 431]
Asked: Rank order required: AC1.4 Human, descending. # output: labels, in the requested order
Given back: II, I, III

----------
method notes: Brain tissue binding, mouse
Format: in vitro ADME
test parameters: mouse, brain tissue
readout name: fraction unbound

> print(dat)
                                   compound      readout.name  value.observed
1  CN(C)C(=O)N1CCC[C@H](c2ccc(NC(=O)OCc3cnco3)cc2)C1 [Compound 376]  fraction unbound           0.132

P = CN(C)S(=O)(=O)N1CCC(Cc2ccc(NC(=O)OCc3cnco3)cc2)CC1 [Compound 27]
Q = CN(C)C(=O)N1CCC(Cc2ccc(NC(=O)OCc3cnco3)cc2F)CC1 [Compound 449]
Asked: Please state the entry with greater fraction unbound among P and Q . Give the label of your selection.
Given back: P

# credit: patent US20240279215A1
